conditions: in n-propyl acetate, 353.2 K
test-readout: solubility (mole fraction)
Answers are plain numbers.

Value of solubility (mole fraction) reported for the molecule O=C(O)c1cccc(C(=O)O)c1 is 0.0018

* * *

details: in 1,4-dioxane, 293.2 K
test-readout: solubility (mole fraction)
Answers are plain numbers.

Value of solubility (mole fraction) reported for the compound CC(=O)N1CCN(c2ccc(OC[C@@H]3CO[C@@](Cn4ccnc4)(c4ccc(Cl)cc4Cl)O3)cc2)CC1 (racemic) is 0.00683

* * *

conditions: in isobutanol, 298.15 K
test-readout: solubility (mole fraction)
Numbers only.

record-smiles: c1ccc2cc3ccccc3cc2c1
solubility (mole fraction): 0.00047

Value of solubility (mole fraction) reported for the molecule O=C(C(=O)c1ccccc1)c1ccccc1 is 0.00969

* * *

conditions: in acetic acid, 313.2 K
test-readout: solubility (mole fraction)
One number for each entry.

record-smiles: O=C(O)c1ccc(C(=O)O)c(C(=O)O)c1
solubility (mole fraction): 0.00168

We now examine a further compound.
Value of solubility (mole fraction) reported for the compound O=C1c2ccccc2C(=O)N1O is 0.00504

* * *

settings: in NMP, 298.2 K
test-readout: solubility (mole fraction)
One number for each entry.

compound: Cc1c(O)c(=O)ccn1C
test-readout: solubility (mole fraction)
numeric-readout: 0.002

We now examine a further compound.
Value of solubility (mole fraction) reported for the compound CC(=O)N1CCN(c2ccc(OC[C@@H]3CO[C@@](Cn4ccnc4)(c4ccc(Cl)cc4Cl)O3)cc2)CC1 (racemic) is 0.023

* * *

conditions: in cyclohexanone, 293.15 K
test-readout: solubility (mole fraction)
Give bare numbers.

Value of solubility (mole fraction) reported for the compound CC1=C(/C=C/C(C)=C/C=C/C(C)=C/C=C/C=C(C)/C=C/C=C(C)/C=C/C2=C(C)CCCC2(C)C)C(C)(C)CCC1 is 0.00032

* * *

details: in 2-pentanol, 298.15 K
test-readout: solubility (mole fraction)
Answers are plain numbers.

Value of solubility (mole fraction) reported for the compound c1ccc2cc3ccccc3cc2c1 is 0.0008

* * *

details: in water, 295.5 K
test-readout: solubility (mole fraction)

Value of solubility (mole fraction) reported for the molecule CCCCCC is 2.7e-06

* * *

conditions: in tert-amyl methyl ether, 293.15 K
test-readout: solubility (mole fraction)

Value of solubility (mole fraction) reported for the molecule CC1=C(/C=C/C(C)=C/C=C/C(C)=C/C=C/C=C(C)/C=C/C=C(C)/C=C/C2=C(C)CCCC2(C)C)C(C)(C)CCC1 is 0.00018

* * *

conditions: in diisopropyl ether, 298.15 K
test-readout: solubility (mole fraction)
One number for each entry.

Value of solubility (mole fraction) reported for the compound CC(C)(C)C(=O)OCOP(=O)(COCCn1cnc2c(N)ncnc21)OCOC(=O)C(C)(C)C is 3.71e-05

* * *

conditions: in isopropanol, 298.2 K
test-readout: solubility (mole fraction)
Answers are plain numbers.

Value of solubility (mole fraction) reported for the compound CC(=O)N1CCN(c2ccc(OC[C@@H]3CO[C@@](Cn4ccnc4)(c4ccc(Cl)cc4Cl)O3)cc2)CC1 (racemic) is 0.000948

* * *

conditions: in water, 338.15 K
test-readout: solubility (mole fraction)
Give bare numbers.

Value of solubility (mole fraction) reported for the molecule CC(C)C[C@H](CN)CC(=O)O is 0.00641

* * *

What solubility (mole fraction) was measured for each of the following?
details: in n-propanol, 323.15 K
Give bare numbers.

record-smiles: COc1ccc([C@@H]2CC(=O)c3c(O)cc(O[C@@H]4O[C@H](CO[C@@H]5O[C@@H](C)[C@H](O)[C@@H](O)[C@H]5O)[C@@H](O)[C@H](O)[C@H]4O)cc3O2)cc1O
solubility (mole fraction): 0.000329

Value of solubility (mole fraction) reported for the compound C/C=C/C=C/C(=O)O is 0.151

* * *

What solubility (mole fraction) was measured for each of the following?
details: in water, 308.15 K
One number for each entry.

Worked set:
molecule: NCCC(=O)N[C@@H](Cc1cnc[nH]1)C(=O)O
numeric-readout: 0.0265
//
molecule: Cc1nc2n(c(=O)c1CCN1CCC(c3noc4cc(F)ccc34)CC1)CCCC2
numeric-readout: 2e-07
//
molecule: NCCS(=O)(=O)O
numeric-readout: 0.0199
//
molecule: N[C@@H](Cc1cnc[nH]1)C(=O)O
numeric-readout: 0.00562
//
molecule: C[C@@H](O)[C@H]1C(=O)N2C(C(=O)[O-])=C(SC3Cn4cnc[n+]4C3)[C@H](C)[C@H]12 (some centres undefined)
numeric-readout: 0.000584

Provide solubility (mole fraction) for all items below, preserving their order.
1. Oc1cc(O)c2cc1Cc1cc(c(O)cc1O)Cc1cc(c(O)cc1O)Cc1cc(c(O)cc1O)C2
2. COc1cc(/C=C/C(=O)CC(=O)/C=C/c2ccc(O)c(OC)c2)ccc1O
3. CSCC[C@H](N)C(=O)O
4. CC(C)C[C@H](CN)CC(=O)O

[reply]
1. 7.68e-06
2. 1.9e-07
3. 0.00787
4. 0.00397

* * *

conditions: in water, 293.15 K
What solubility (mole fraction) was measured for each of the following?
Give bare numbers.

record-smiles: NCCC(=O)N[C@@H](Cc1cnc[nH]1)C(=O)O
solubility (mole fraction): 0.0224

Provide solubility (mole fraction) for all items below, preserving their order.
1. CSCC[C@H](N)C(=O)O
2. C[C@@H](O)[C@H]1C(=O)N2C(C(=O)O)=C(S[C@@H]3CN[C@H](C(=O)N(C)C)C3)[C@H](C)[C@H]12.O.O.O

[reply]
1: 0.00625; 2: 0.000556
